# protocol.summary: In vivo PK in CD-1 mice, plasma and brain by LC-MS/MS
# assay.context: male, CD-1, mouse, brain, oral, 10 mg/kg
observable: concentration at 1 h
Give me the value, and tack the unit on after it.

Query: For the compound shown here, CC(C)NC(=O)N1CC[C@H](NC2=Nc3cc(F)ccc3N(CC(F)F)c3ccc(Cl)cc32)C1 [NVS‐PAK1‐1] , give the reported concentration at 1 h.
Reply: 33.2 ng/g

====

# protocol.summary: In vivo PK in CD-1 mice, plasma and brain by LC-MS/MS
# assay.context: male, CD-1, mouse, plasma, po, 100 mg/kg, AUCInf, 100 mg/kg PO
observable: AUC(0-inf) (ng·h/mL)
Report as a plain number; the unit ng·h/mL is understood.

Query: Query (molecule): CC(C)NC(=O)N1CC[C@H](NC2=Nc3cc(F)ccc3N(CC(F)F)c3ccc(Cl)cc32)C1 [NVS‐PAK1‐1] ; field requested: AUC(0-inf)
Reply: 4720

====

# protocol.summary: In vivo PK in CD-1 mice, plasma and brain by LC-MS/MS
# assay.context: plasma, 10 mg/kg PO, sampling 0.5, 1, 3, 5 h
observable: AUClast/D (h·ng/mL per mg/kg)
Give the value, in units of h·ng/mL per mg/kg, as a plain number.

Query: Suppose we examine the compound `CC(C)NC(=O)N1CC[C@H](NC2=Nc3cc(F)ccc3N(CC(F)F)c3ccc(Cl)cc32)C1` ; what AUClast/D value has been reported?
Reply: 22.3

====

# protocol.summary: In vivo PK in CD-1 mice, plasma and brain by LC-MS/MS
# assay.context: male, CD-1, mouse, in vivo, po, 1 mg/kg
observable: AUC(0-t) (ng·h/mL)
Report the figure in ng·h/mL without appending any unit label.

Query: Which measured AUC(0-t) value corresponds to `CC(C)NC(=O)N1CC[C@H](NC2=Nc3cc(F)ccc3N(CC(F)F)c3ccc(Cl)cc32)C1` ?
Reply: 27.2

====

# protocol.summary: In vivo PK in CD-1 mice, plasma and brain by LC-MS/MS
# assay.context: male, CD-1, mouse, brain, po, 10 mg/kg, AUClast, 10 mg/kg PO
observable: AUC(0-t) (ng·h/mL)
State the answer as a number, implicitly in ng·h/mL.

Query: Return reported AUC(0-t); argument: `CC(C)NC(=O)N1CC[C@H](NC2=Nc3cc(F)ccc3N(CC(F)F)c3ccc(Cl)cc32)C1`
Reply: 57.4

====

# protocol.summary: Plasma and brain NVS-PAK1-1 concentrations in 5xFAD mice
# Format: in vivo
# assay.context: male, 5xFAD, mouse, plasma, po, 100 mg/kg, aged 5xFAD males, 100 mg/kg BID PO 31 days, 4 h after final dose; read-out: plasma concentration
observable: concentration at 4 h (ng/mL)
Lab book: enter the figure in ng/mL, no units written.

Query: Can you look up the measured concentration at 4 h of CC(C)NC(=O)N1CC[C@H](NC2=Nc3cc(F)ccc3N(CC(F)F)c3ccc(Cl)cc32)C1 [NVS‐PAK1‐1] for me?
Reply: 140

====

# protocol.summary: In vivo PK in CD-1 mice, plasma and brain by LC-MS/MS
# assay.context: male, CD-1, mouse, plasma, po, 1 mg/kg, Cmax, 1 mg/kg PO
observable: Cmax (ng/mL)
Write the number in ng/mL without appending the unit.

Query: Need Cmax of `CC(C)NC(=O)N1CC[C@H](NC2=Nc3cc(F)ccc3N(CC(F)F)c3ccc(Cl)cc32)C1` , thanks.
Reply: 8.1

====

# protocol.summary: In vivo PK in CD-1 mice, plasma and brain by LC-MS/MS
# assay.context: male, CD-1, mouse, plasma, ip, 10 mg/kg, Tmax, 10 mg/kg IP, sampling 0.5, 1, 3, 5 h
observable: Tmax (min)
Please give a number only; it is taken to be in min.

Query: // Tmax lookup, key: `CC(C)NC(=O)N1CC[C@H](NC2=Nc3cc(F)ccc3N(CC(F)F)c3ccc(Cl)cc32)C1`
Reply: 30

====

# protocol.summary: In vivo PK in CD-1 mice, plasma and brain by LC-MS/MS
# assay.context: plasma, 1 mg/kg PO
observable: AUClast/D (h·ng/mL per mg/kg)
Express the result in h·ng/mL per mg/kg but write the number alone.

Query: Query (compound): CC(C)NC(=O)N1CC[C@H](NC2=Nc3cc(F)ccc3N(CC(F)F)c3ccc(Cl)cc32)C1 [NVS‐PAK1‐1] ; field requested: AUClast/D
Reply: 27.2

====

# protocol.summary: In vivo PK in CD-1 mice, plasma and brain by LC-MS/MS
# assay.context: male, CD-1, mouse, plasma, po, 10 mg/kg, T1/2, plasma, 10 mg/kg PO, sampling 0.5, 1, 3, 5 h
observable: half-life (h)
Numbers only here, please. The scale is h.

Query: Look at this compound and give its reported half-life. `CC(C)NC(=O)N1CC[C@H](NC2=Nc3cc(F)ccc3N(CC(F)F)c3ccc(Cl)cc32)C1`
Reply: 1.56

====

# protocol.summary: Plasma and brain NVS-PAK1-1 concentrations in 5xFAD mice
# Assay type: in vivo
# assay.context: male, 5xFAD, mouse, brain, po, 100 mg/kg, aged 5xFAD males, 100 mg/kg BID PO 31 days, 4 h after final dose; read-out: brain concentration
observable: concentration at 4 h
# output: numeric value plus its unit

Query: What measured concentration at 4 h goes with CC(C)NC(=O)N1CC[C@H](NC2=Nc3cc(F)ccc3N(CC(F)F)c3ccc(Cl)cc32)C1 [NVS‐PAK1‐1] ?
Reply: 49.1 ng/g

====

# protocol.summary: In vivo PK in CD-1 mice, plasma and brain by LC-MS/MS
# assay.context: plasma, 10 mg/kg PO, sampling 1, 3, 8 h
observable: AUClast/D (h·ng/mL per mg/kg)
All answers are understood in h·ng/mL per mg/kg, so give the number only.

Query: Look up AUClast/D: `CC(C)NC(=O)N1CC[C@H](NC2=Nc3cc(F)ccc3N(CC(F)F)c3ccc(Cl)cc32)C1`
Reply: 27.4

====

# protocol.summary: In vivo PK in CD-1 mice, plasma and brain by LC-MS/MS
# assay.context: male, CD-1, mouse, plasma, po, 10 mg/kg, AUCInf, 10 mg/kg PO, sampling 0.5, 1, 3, 5 h
observable: AUC(0-inf) (µg·h/mL)
Please reply with the bare figure in µg·h/mL and do not write the unit itself.

Query: Sample CC(C)NC(=O)N1CC[C@H](NC2=Nc3cc(F)ccc3N(CC(F)F)c3ccc(Cl)cc32)C1 [NVS‐PAK1‐1] — what was its AUC(0-inf)?
Reply: 0.252

====

# protocol.summary: In vivo PK in CD-1 mice, plasma and brain by LC-MS/MS
# assay.context: male, CD-1, mouse, plasma, po, 10 mg/kg, Tmax, 10 mg/kg PO, sampling 1, 3, 8 h
observable: Tmax

Query: Dear colleague, I am looking for the recorded Tmax of the following compound: CC(C)NC(=O)N1CC[C@H](NC2=Nc3cc(F)ccc3N(CC(F)F)c3ccc(Cl)cc32)C1 [NVS‐PAK1‐1]
Reply: 1 h

====

# protocol.summary: In vivo PK in CD-1 mice, plasma and brain by LC-MS/MS
# assay.context: male, CD-1, mouse, plasma, po, 10 mg/kg, AUClast, 10 mg/kg PO, sampling 1, 3, 8 h
observable: AUC(0-t) (ng·h/mL)
Report the value in ng·h/mL with no unit label.

Query: Entry `CC(C)NC(=O)N1CC[C@H](NC2=Nc3cc(F)ccc3N(CC(F)F)c3ccc(Cl)cc32)C1` has what AUC(0-t)?
Reply: 274

====

# protocol.summary: In vivo PK in CD-1 mice, plasma and brain by LC-MS/MS
# assay.context: male, CD-1, mouse, plasma, intraperitoneal, 10 mg/kg
observable: concentration at 1 h (ng/mL)
Please reply with the bare figure in ng/mL and do not write the unit itself.

Query: What value of measured concentration at 1 h is listed for `CC(C)NC(=O)N1CC[C@H](NC2=Nc3cc(F)ccc3N(CC(F)F)c3ccc(Cl)cc32)C1` ?
Reply: 448

====

# protocol.summary: In vivo PK in CD-1 mice, plasma and brain by LC-MS/MS
# assay.context: male, CD-1, mouse, plasma, po, 100 mg/kg, MRTInf_obs, 100 mg/kg PO
# Protocol: Initial in vivo PK studies to confirm oral bioavailability and brain exposure were conducted at Pharmaron (Beijing, China) in non‐fasted male CD‐1 mice (6–8 weeks of age; sourced from Vital River). […] The dose volume was 10 mL/kg. Next, we evaluated brain and plasma PK of 10 mg/kg (1 hour pre, IP, n = 3). […]
observable: MRT inf (h)
Give just the number in h; leave the unit off.

Query: Sample CC(C)NC(=O)N1CC[C@H](NC2=Nc3cc(F)ccc3N(CC(F)F)c3ccc(Cl)cc32)C1 [NVS‐PAK1‐1] — what was its MRT inf?
Reply: 1.91

====

# protocol.summary: In vivo PK in CD-1 mice, plasma and brain by LC-MS/MS
# assay.context: male, CD-1, mouse, brain, oral, 10 mg/kg
observable: concentration at 3 h (ng/g)
The reply should contain only the number, in ng/g.

Query: // returns reported concentration at 3 h for input CC(C)NC(=O)N1CC[C@H](NC2=Nc3cc(F)ccc3N(CC(F)F)c3ccc(Cl)cc32)C1 [NVS‐PAK1‐1]
Reply: 7.62

Reference source: paper PMC12741935
